# Target or test system: MA peptide (Octet assay of PS557 variants)
# Measurement notes: Octet (BLI), peptide on sensor, response after 200 s association
Labels assigned by Octet response range: lower band (below 2 nm), central band (2 nm to below 5 nm), upper band (5 nm or more)

Which Octet response category applies to PS830 (designed binder) MPTAASATESAIEDTPAPARPEVDGRTKPKRQPRYHVVLWDDDDHTYQYVVVMLQSLFGHPRKRGYRLAKEMDTLGRVIVLTTTREHAELKRDQIHAFGYDRLLARSKGSMKASIEAEE here?
central band

Just checking, what class would you give PS808 (designed binder) MPTAASATESAIEDTPAPARPEVDGRTKPKRQPRYHVVLWNDDDHTYQYVVVMLRSLFGHPPERGYRLAKEVDTQGRVIVLTTTREHAELKRDQIHAFGYDRLLARSKGSMKASIEAEE here?
lower band

For the record PS819 (designed binder) MPTAASATESAIEDTPAPARPEVDGRTKPKRQPRYHVVLWDDDDHTYQYVVVMLQSLFGHPPKRGYRLAKEMDTQGRVIVLTTTREHAELKRDQIHAFGYDRLLARSKGSMKASIEAEE , report the class its Octet response corresponds to.
central band

Dear colleague, I would appreciate it if you could identify the bin for PS797 (designed binder) MPTAASATESAIEDTPAPARPEVDGRTKPKRQPRYHVVLWDDDDHTYQYVVVMLQSLFGHPPERGYRLAKEMDTLGRVIVLTTTREHAELKRDQIHAFGYDRLLARSKGSMKASIEAEE and reply at your convenience.
upper band

Lab note: sort PS798 (designed binder) MPTAASATESAIEDTPAPARPEVDGRTKPKRQPRYHVVLWNDDDHTYQYVVVMLQSLFGHPPERGYRLAKEMDTLGRVIVLTTTREHAELKRDQIHAFGYDRLLARSKGSMKASIEAEE into the matching Octet response band.
upper band

Kindly state the category for this binder: PS796 (designed binder) MPTAASATESAIEDTPAPARPEVDGRTKPKRQPRYHVVLWDDDDHTYQYVVVMLQSLFGHPPERGYRLAKEMDTQGRVIVLTTTREHAELKRDQIHAFGYDRLLARSKGSMKASIEAEE
upper band

Where would PS847 (designed binder) MPTAASATESAIEDTPAPARPEVDGRTKPKRQPRYHVVLWDDDDHTYQYVVVMLRSLFGHPPERGYRLAKEMDTQGRVIVLTTTREHAELKRDQIHAFGYDRLLARSKGSMKASIEAEE land among the classes by reported Octet response?
central band

# bin lookup: classify PS828 (designed binder) MPTAASATESAIEDTPAPARPEVDGRTKPKRQPRYHVVLWDDDDHTYQYVVVMLQSLFGHPRERGYRLAKEVDTLGRVIVLTTTREHAELKRDQIHAFGYDRLLARSKGSMKASIEAEE by its Octet response
lower band

Which class holds PS809 (designed binder) MPTAASATESAIEDTPAPARPEVDGRTKPKRQPRYHVVLWNDDDHTYQYVVVMLQSLFGHPPERGYRLAKEMDTQGRVIVLTTTREHAELKRDQIHAFGYDRLLARSKGSMKASIEAEE ?
central band

Please indicate the class for PS801/PS814 (designed binder) MPTAASATESAIEDTPAPARPEVDGRTKPKRQPRYHVVLWNDDDHTYQYVVVMLQSLFGHPPKRGYRLAKEVDTQGRVIVLTTTREHAELKRDQIHAFGYDRLLARSKGSMKASIEAEE based on its Octet response.
lower band

Hi, small favor: classify PS838 (designed binder) MPTAASATESAIEDTPAPARPEVDGRTKPKRQPRYHVVLWDDDDHTYQYVVVMLQSLFGHPRERGYRLAKEMDTQGRVIVLTTTREHAELKRDQIHAFGYDRLLARSKGSMKASIEAEE by its Octet response when you get a moment.
upper band

In plain terms, what class is PS829 (designed binder) MPTAASATESAIEDTPAPARPEVDGRTKPKRQPRYHVVLWDDDDHTYQYVVVMLQSLFGHPRERGYRLAKEMDTLGRVIVLTTTREHAELKRDQIHAFGYDRLLARSKGSMKASIEAEE ?
central band
